Target: E. coli apo-SdhA (Escherichia coli, UniProt P0AC41)
Construct: His6 (N); made in house; host or cells: E. coli RP437 ΔsdhE (RP-E), plasmid pCA24N-SdhA
Sequence (P0AC41 whole entry): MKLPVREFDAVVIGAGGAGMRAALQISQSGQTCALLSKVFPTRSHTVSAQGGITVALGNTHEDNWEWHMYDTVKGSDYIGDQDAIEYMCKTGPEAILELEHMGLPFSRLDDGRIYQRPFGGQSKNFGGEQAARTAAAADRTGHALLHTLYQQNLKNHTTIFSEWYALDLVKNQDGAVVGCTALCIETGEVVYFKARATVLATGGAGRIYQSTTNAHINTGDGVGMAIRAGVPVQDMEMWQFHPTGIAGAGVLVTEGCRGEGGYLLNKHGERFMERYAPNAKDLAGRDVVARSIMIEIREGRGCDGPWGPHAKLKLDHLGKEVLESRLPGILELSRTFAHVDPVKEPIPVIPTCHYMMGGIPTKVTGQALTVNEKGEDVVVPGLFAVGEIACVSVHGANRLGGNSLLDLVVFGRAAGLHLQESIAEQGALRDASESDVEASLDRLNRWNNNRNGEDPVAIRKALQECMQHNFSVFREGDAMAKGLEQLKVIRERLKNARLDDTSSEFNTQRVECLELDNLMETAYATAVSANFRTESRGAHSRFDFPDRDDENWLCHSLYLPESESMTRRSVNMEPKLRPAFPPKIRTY
Assay: biochemical
Format: biochemical
Details: +SdhE; 50 mM potassium phosphate pH 7.0, 0.1 mM FAD, 30 °C
In this section we review reported K, apparent first-order rate constant of covalent flavinylation, +SdhE values for a set of molecules.
measured parameter: K, apparent first-order rate constant of covalent flavinylation, +SdhE (min⁻¹)

1) O=C(O)CCC(=O)O [Succinate, succinate] : 0.7
2) O=C(O)/C=C/C(=O)O [Fumarate] : 1.7
3) O=C(O)CC(O)C(=O)O (stereo not shown) [Malate, malate] : 0.3
4) N[C@@H](CC(=O)O)C(=O)O [Aspartate, L-aspartate] : 0.1
